Test system: L1210 leukemia ip in BDF1 mice, survival T/C
assay protocol: NCI In Vivo Anticancer Drug Screen. Data for tumor model L1210 Leukemia (intraperitoneal) in B6D2F1 (BDF1) mice
test context: endpoint: mean survival time; dose: 100.0 mg/kg/injection; schedule: Q01DX009 (ip); vehicle: saline sonified; higher = longer survival
Inconclusive results and toxic doses are left out.
# key: entry, value: T/C

Solved cases (2 shown):
> print(dat)
           structure.smiles            result
1            S=C(S)N1CCOCC1  100 % of control
2  CC(C)(C)OOC(=O)c1ccccc1O  113 % of control

Sample `COc1cc(N/C(N)=N\C(N)=NC(C)C)cc(OC)c1OC` — what was its T/C?
101 % of control

Then `COC(=O)c1cc(C)c(C(=O)OC)cc1C` ?
97 % of control

====

# key: entry, value: T/C
System: L1210 leukemia ip in BDF1 mice, survival T/C
assay protocol: NCI In Vivo Anticancer Drug Screen. Data for tumor model L1210 Leukemia (intraperitoneal) in B6D2F1 (BDF1) mice
test context: endpoint: mean survival time; dose: 100.0 mg/kg/injection; schedule: Q04DX003 (ip); vehicle: acetone; higher = longer survival
Inconclusive results and toxic doses are left out.

Solved cases (3 shown):
> print(dat)
                                   compound            result
1                  CCCCCCCC(=O)Nc1ccc(F)cc1   95 % of control
2         Cc1ccc(CSc2ssc(=S)c2-c2ccccc2)cc1   99 % of control
3  Cc1cc(C)c(S(=O)(=O)CC(Cl)c2ccccc2)c(C)c1 (centres undefined)  103 % of control

Turning now to a further compound:
Sample `C#CCCCCC#CCCCCCl` — what was its T/C?
90 % of control

====

Tested on: L1210 leukemia ip in BDF1 mice, survival T/C
assay protocol: NCI In Vivo Anticancer Drug Screen. Data for tumor model L1210 Leukemia (intraperitoneal) in B6D2F1 (BDF1) mice
test context: endpoint: mean survival time; dose: 200.0 mg/kg/injection; schedule: Q01DX001 (ip); vehicle: saline; higher = longer survival
Toxic doses and inconclusive results are not listed.
measured attribute: T/C

Solved cases (5 shown):
> print(dat)
                                   compound  measured.attribute            result
1  CC(=O)OCC1OC(Sc2nc3ncnc(N)c3[nH]2)C(OC(C)=O)C(OC(C)=O)C1OC(C)=O (stereo not given)                 T/C  102 % of control
2   Cc1cccc(OCCOC(=O)Nc2cccc(C(F)(F)F)c2)c1                 T/C  106 % of control
3    O=NN1CCCCCCC1C(=O)O (stereo not given)                 T/C   98 % of control
4    COC(=O)CC(N)C(=O)OC (stereo not given)                 T/C   86 % of control
5  CC(NC(=O)OCc1ccccc1)C(=O)NC1C(CO)OC(n2cnc3c(N)ncnc32)C1O (stereo not given)                 T/C  103 % of control

Sample `O=C(CCl)NCc1ccc(Cl)c(C(=O)O)c1` — what was its T/C?
99 % of control

Then `CCOC(=O)NCC(C)(C)C` ?
107 % of control

Then `Cc1cc(=O)n(CC(=O)O)c2ccccc12` ?
100 % of control

Then `O=CNc1ccccc1Cc1ccccc1` ?
107 % of control

Then O=C(O)c1ccc(NC(c2ccccc2)c2ccc3cccnc3c2O)cc1 (stereo not given) ?
89 % of control

====

System: L1210 leukemia ip in BDF1 mice, survival T/C
assay protocol: NCI In Vivo Anticancer Drug Screen. Data for tumor model L1210 Leukemia (intraperitoneal) in B6D2F1 (BDF1) mice
test context: endpoint: mean survival time; dose: 50.0 mg/kg/injection; schedule: Q04DX003 (ip); vehicle: saline; higher = longer survival
Toxic doses and inconclusive results are not listed.
measured attribute: T/C

Solved cases (3 shown):
> print(dat)
                                   compound            result
1                     CC(C)(N)Cc1ccc(Cl)cc1  106 % of control
2  Cc1ccc(-n2c(=O)[nH]c3c(c2=O)C(c2ccc(Cl)cc2)C(C)(C)O3)cc1 (centres undefined)   90 % of control
3  COC1C(OC(=O)/C=C/C=C/C=C/C=C/C(=O)O)CCC2(CO2)C1C1(C)OC1CC=C(C)C (centres undefined)  116 % of control

Turning now to a further compound:
Sample `O=S(=O)(O)O.[N-]=C(N)/N=C(\[NH-])N.[N-]=C(N)/N=C(\[NH-])N.[N-]=C(N)NC(=[N-])N.[Rh+3]` — what was its T/C?
96 % of control

====

Tested on: L1210 leukemia ip in BDF1 mice, survival T/C
assay protocol: NCI In Vivo Anticancer Drug Screen. Data for tumor model L1210 Leukemia (intraperitoneal) in B6D2F1 (BDF1) mice
test context: endpoint: mean survival time; dose: 400.0 mg/kg/injection; schedule: Q01DX009 (ip); vehicle: Klucel (hydroxypropylcellulose) (HPC); higher = longer survival
Inconclusive results and toxic doses are left out.
# key: entry, value: T/C

Solved cases (8 shown):
> print(dat)
                                   molecule  measured.attribute           result
1     CCCCSCC(N)C(=O)O (stereo unspecified)                 T/C  98 % of control
2                     CCC(=O)OCc1ccc(Cl)cc1                 T/C  94 % of control
3           O=CNC(NC=O)c1ccccc1[N+](=O)[O-]                 T/C  97 % of control
4        Cc1cccc(C)c1NS(=O)(=O)c1ccc(Cl)cc1                 T/C  95 % of control
5                    CSc1nc(SC)c2[nH]cnc2n1                 T/C  98 % of control
6  Cc1ccc(S(=O)(=O)N(C)c2ccc3cc(C(=O)O)ccc3c2)cc1                 T/C  94 % of control
7  C=CCOC(=O)C1CC(C(=O)OCC=C)C(C(=O)OCC=C)C1C(=O)OCC=C (stereo unspecified)                 T/C  92 % of control
8  Cc1ccc(SP(=S)(Sc2ccc(C)cc2)Sc2ccc(C)cc2)cc1                 T/C  94 % of control

Sample `O=C(c1cccc(C(=O)N(c2ccccc2)C2CCCCC2)c1)N(c1ccccc1)C1CCCCC1` — what was its T/C?
98 % of control

Then `O=C(N/N=C/c1ccc2c(c1)OCO2)c1ccccc1` ?
86 % of control

Then `CC(C)(O)C(=O)NCNC(=O)C(C)(C)O` ?
97 % of control

====

Test system: L1210 leukemia ip in BDF1 mice, survival T/C
assay protocol: NCI In Vivo Anticancer Drug Screen. Data for tumor model L1210 Leukemia (intraperitoneal) in B6D2F1 (BDF1) mice
test context: endpoint: mean survival time; dose: 200.0 mg/kg/injection; schedule: Q04DX002 (ip); vehicle: Klucel (hydroxypropylcellulose) (HPC); higher = longer survival
Method: The antitumor activity of compounds was measured in mice bearing transplantable tumors. Survival or tumor size were measured and the results are expressed as the measurement made in the treated group (T) divided by the measurement made in the vehicle treated control group (C). The tumor model used in this assay is L1210 Leukemia (intraperitoneal) in B6D2F1 (BDF1) mice
Toxic doses and inconclusive results are not listed.
# key: entry, value: T/C

Solved cases (4 shown):
> print(dat)
                                   compound            result
1  CCn1c(C)nc2cc(N=Cc3ccc(N(CCCl)CCCl)cc3C)ccc21  102 % of control
2             COc1ccc(C(=O)Nc2ccc(F)cc2)cc1  102 % of control
3               Oc1ccccc1/C=N\N=C\c1ccccc1O  112 % of control
4       CCN(CC)Cc1ccccc1COC(=O)c1ccc(Br)cc1  108 % of control

Sample `O=S(=O)(O)c1ccc(CCCCCCCCl)cc1` — what was its T/C?
90 % of control

Then `O=C(O)COc1ccccc1C(=O)O` ?
98 % of control

Then `NC(=O)C(=Cc1ccc([N+](=O)[O-])s1)C(N)=O` ?
112 % of control

====

Tested on: L1210 leukemia ip in BDF1 mice, survival T/C
assay protocol: NCI In Vivo Anticancer Drug Screen. Data for tumor model L1210 Leukemia (intraperitoneal) in B6D2F1 (BDF1) mice
test context: endpoint: mean survival time; dose: 75.0 mg/kg/injection; schedule: Q01DX001 (ip); vehicle: saline; higher = longer survival
Toxic doses and inconclusive results are not listed.
measured attribute: T/C

Solved cases (3 shown):
> print(dat)
                                   compound                       experimental.system            result
1  Nc1nc(N)c(-c2ccc(Cl)c(Cl)c2)c(C[P+](c2ccccc2)(c2ccccc2)c2ccccc2)n1  L1210 leukemia ip in BDF1 mice, survival T/C   97 % of control
2                    CCCCCC[n+]1ccc(C#N)cc1  L1210 leukemia ip in BDF1 mice, survival T/C  101 % of control
3  CCOC(=O)C(=N\Nc1cc(C)ccc1C)/C(C)=N\NC(N)=S  L1210 leukemia ip in BDF1 mice, survival T/C   87 % of control

Sample `C=CCCC1(CCC)C(=O)NC(=O)NC1=O` — what was its T/C?
103 % of control

Then COC1C=CC2C3Cc4ccc(O)c5c4C2(CCN3C)C1O5 (stereo unspecified) ?
104 % of control

Then `CCC[n+]1ccc(C#N)cc1` ?
106 % of control

Then Cc1cc(C)c(C(=O)OC(c2ccccc2)C(C)c2ccccc2)c(C)c1 (stereo unspecified) ?
94 % of control

Then `OCCN1CCN(CC/C=C2\c3ccccc3Sc3ccc(Cl)cc32)CC1` ?
105 % of control
